conditions: 1019 K; Crystal
assay.metric: vapor or sublimation pressure (kPa)
Response body: numeric value in kPa, unit text excluded.

[I][Tb]([I])[I] [terbium triiodide] :: 0.00759
[I][Gd]([I])[I] [gadolinium triiodide] :: 0.00339

*Q* # query: vapor or sublimation pressure of entry [Br][Gd]([Br])[Br] [gadolinium bromide (GdBr3)]
*A* 0.00251

*Q* # query: vapor or sublimation pressure of entry [Br-].[Br-].[Br-].[Tb+3] [terbium tribromide]
*A* 0.00257
